Record form. Attribute: hERG current change (%, negative = inhibition) at 10uM. Fill in for each entry.
TESTED_TARGET: human ether-à-go-go-related gene (hERG) potassium channel (human, UniProt Q12809);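 note: peak tail current of the secondary pulse compared with the same well before compound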
Sequence (Q12809 whole entry, looked up): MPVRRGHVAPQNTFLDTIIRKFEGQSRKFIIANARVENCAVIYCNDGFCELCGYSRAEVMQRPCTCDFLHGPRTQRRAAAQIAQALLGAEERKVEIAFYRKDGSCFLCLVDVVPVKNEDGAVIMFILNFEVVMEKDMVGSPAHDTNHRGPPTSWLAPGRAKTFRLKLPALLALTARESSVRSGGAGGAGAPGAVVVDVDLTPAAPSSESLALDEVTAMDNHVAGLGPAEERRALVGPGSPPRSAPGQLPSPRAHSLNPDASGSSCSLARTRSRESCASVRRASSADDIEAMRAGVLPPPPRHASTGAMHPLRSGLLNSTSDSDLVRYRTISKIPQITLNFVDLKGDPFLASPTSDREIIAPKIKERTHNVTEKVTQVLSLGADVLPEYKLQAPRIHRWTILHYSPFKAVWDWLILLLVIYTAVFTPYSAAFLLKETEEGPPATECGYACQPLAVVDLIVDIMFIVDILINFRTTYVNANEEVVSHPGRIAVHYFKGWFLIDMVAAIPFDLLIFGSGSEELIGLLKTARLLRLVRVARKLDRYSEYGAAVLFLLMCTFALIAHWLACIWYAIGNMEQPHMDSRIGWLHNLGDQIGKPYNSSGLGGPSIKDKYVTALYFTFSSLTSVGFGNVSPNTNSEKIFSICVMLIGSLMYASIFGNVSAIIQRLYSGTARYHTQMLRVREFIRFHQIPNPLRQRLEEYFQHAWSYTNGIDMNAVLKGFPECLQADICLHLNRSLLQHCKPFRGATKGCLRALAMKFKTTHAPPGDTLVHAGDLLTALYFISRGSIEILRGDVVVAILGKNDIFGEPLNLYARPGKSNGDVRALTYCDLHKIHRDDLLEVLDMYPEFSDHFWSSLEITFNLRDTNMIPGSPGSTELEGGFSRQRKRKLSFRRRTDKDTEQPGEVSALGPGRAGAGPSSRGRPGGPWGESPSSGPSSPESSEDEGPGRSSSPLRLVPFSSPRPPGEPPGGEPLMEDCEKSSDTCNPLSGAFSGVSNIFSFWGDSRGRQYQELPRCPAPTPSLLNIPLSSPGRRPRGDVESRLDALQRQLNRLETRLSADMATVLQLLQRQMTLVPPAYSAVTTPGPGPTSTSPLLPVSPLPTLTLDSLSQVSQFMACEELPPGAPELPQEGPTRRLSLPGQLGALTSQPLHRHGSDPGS
MEASUREMENT_NOTES: primary screen, population patch clamp on CHO cells stably expressing hERG; higher = less effect of the substance
The campaign covered roughly 310,000 compounds. About 14,000 (4.5%) showed an effect of 50% or more. The effect is printed as a negative number. What follows is part of a selection rich in strong results, with near analogues and random picks from the rest.
All answers are understood in %, so give the number only.

For reference, reported hERG current change (%, negative = inhibition) at 10uM for COc1ccc(CN2CCCC(C(=O)N3CCCCC3)C2)cc1OC.O=C(O)C(=O)O (stereo not drawn) stands at -25.5

For reference, reported hERG current change (%, negative = inhibition) at 10uM for CCOc1cc(C2C(C(=O)O)c3cc(OCC)c(OCC)cc3C(=O)N2C)ccc1O (stereo not drawn) stands at 2.69

For reference, reported hERG current change (%, negative = inhibition) at 10uM for `S=C(NCCN(C1CCCCC1)C1CCCC1)Nc1cccc(Cl)c1` stands at -71.3

For reference, reported hERG current change (%, negative = inhibition) at 10uM for `CCOC(=O)NCc1ccc2c(c1)OCO2` stands at 19.7

For reference, reported hERG current change (%, negative = inhibition) at 10uM for COc1ccc2cc(C(=O)C3CCCN(C(=O)c4sc(C)nc4C)C3)ccc2c1 (stereo not drawn) stands at -22.8

For reference, reported hERG current change (%, negative = inhibition) at 10uM for `CN(C)CCNC(=S)Nc1cccc(Cl)c1` stands at -27

For reference, reported hERG current change (%, negative = inhibition) at 10uM for O=C(CC1C(=O)NCCN1Cc1ccc(-c2ccccc2)cc1)NCCCn1ccnc1 (stereo not drawn) stands at 14

For reference, reported hERG current change (%, negative = inhibition) at 10uM for `CCOC(=O)c1cnc2c(ccc3ccccc32)c1NCCO` stands at -26.4

For reference, reported hERG current change (%, negative = inhibition) at 10uM for `Cc1cc(C)c(CN2CCN(C(=O)Cn3ccc(NC(=O)OCc4ccccc4)nc3=O)CC2)c(C)c1` stands at -5.55

For reference, reported hERG current change (%, negative = inhibition) at 10uM for `N#CCn1nnc(-c2ccc3c(c2)OCO3)n1` stands at -4.09

For reference, reported hERG current change (%, negative = inhibition) at 10uM for `O=C(CSc1nnc2ccccn12)NC(=O)NC1CCCC1` stands at 13.4

For reference, reported hERG current change (%, negative = inhibition) at 10uM for COc1cc(CN2CCCC(C(=O)N3CCc4ccccc4C3)C2)cc(OC)c1OC (stereo not drawn) stands at -62

For reference, reported hERG current change (%, negative = inhibition) at 10uM for `Cc1cc(C)cc(NC(=S)NCCN(C2CCCCC2)C2CCCC2)c1` stands at -69.6

For reference, reported hERG current change (%, negative = inhibition) at 10uM for COc1ccc(CN2CCCC(C(=O)N3CCc4ccccc4C3)C2)cc1OC (stereo not drawn) stands at -62

For reference, reported hERG current change (%, negative = inhibition) at 10uM for `COCCN(C(=O)COC(=O)c1sccc1C)c1c(N)n(Cc2ccccc2)c(=O)[nH]c1=O` stands at 15.4

For reference, reported hERG current change (%, negative = inhibition) at 10uM for Cc1ccc(C2CC(=O)NC(SCCC(C)C)=C2C#N)cc1 (stereo not drawn) stands at -10.6

For reference, reported hERG current change (%, negative = inhibition) at 10uM for `Cc1ccc(C)c(NC(=S)NCCN(C2CCCCC2)C2CCCC2)c1` stands at -68.5

For reference, reported hERG current change (%, negative = inhibition) at 10uM for `Cc1cccc(NC(=S)NC2CCCC2)c1` stands at 0.919

For reference, reported hERG current change (%, negative = inhibition) at 10uM for `COc1ccc(S(=O)(=O)N2CCC(C(=O)N3CCc4ccccc4C3)CC2)cc1OC` stands at -27.4

For reference, reported hERG current change (%, negative = inhibition) at 10uM for `O=C(CSCc1ccc(Br)cc1)N1CCOCC1` stands at 3.5

For reference, reported hERG current change (%, negative = inhibition) at 10uM for `CCOC(=O)c1cnc2ccc(OC)cc2c1Nc1ccc(N2CCN(C)CC2)cc1` stands at -18.2

For reference, reported hERG current change (%, negative = inhibition) at 10uM for `COc1ccc(CCNC(=O)C2CCN(S(=O)(=O)c3c(C)noc3C)CC2)cc1OC` stands at -16.9

For reference, reported hERG current change (%, negative = inhibition) at 10uM for `O=C(c1cccc(S(=O)(=O)Nc2ccccc2F)c1)N1CCN(c2ccccc2F)CC1` stands at -21.5

For reference, reported hERG current change (%, negative = inhibition) at 10uM for `CCOC(=O)c1cnc2ccccc2c1NCCc1ccc(OC)c(OC)c1` stands at -78.2

For reference, reported hERG current change (%, negative = inhibition) at 10uM for `CC(C)(C)c1cc(CCC(=O)NCc2ccccn2)cc(C(C)(C)C)c1O` stands at -10.1

For reference, reported hERG current change (%, negative = inhibition) at 10uM for Cc1cccc(CN2CCCC(C(=O)N3CCc4ccccc4C3)C2)c1.O=C(O)C(=O)O (stereo not drawn) stands at -51.3

For reference, reported hERG current change (%, negative = inhibition) at 10uM for `Cc1cc(C)cc(NC(=S)NCCCO)c1` stands at -0.803

For reference, reported hERG current change (%, negative = inhibition) at 10uM for `C/C(=N\Nc1nncc2ccccc12)c1ccc(OCC(=O)N(C)C)cc1` stands at 8.27

For reference, reported hERG current change (%, negative = inhibition) at 10uM for `Cc1ccc(SCCNC(=S)Nc2cc(C)ccc2C)cc1` stands at 4.34

For reference, reported hERG current change (%, negative = inhibition) at 10uM for N#CC1(c2nc3ccccc3[nH]2)CC1c1ccc2c(c1)OCO2 (stereo not drawn) stands at 0.101

For reference, reported hERG current change (%, negative = inhibition) at 10uM for `CCOCCCNC(=S)Nc1cc(C)cc(C)c1` stands at 11

For reference, reported hERG current change (%, negative = inhibition) at 10uM for `CC1(C)O[C@@H]1COc1c2ccoc2cc2oc(=O)ccc12` stands at -19.4

For reference, reported hERG current change (%, negative = inhibition) at 10uM for `O=C(NCc1cccs1)c1ccccc1[N+](=O)[O-]` stands at -11.4

For reference, reported hERG current change (%, negative = inhibition) at 10uM for `CCC(=O)Nc1ccc(C(=O)c2ccccc2)cc1` stands at -9.96

For reference, reported hERG current change (%, negative = inhibition) at 10uM for `COc1ccc(C(=O)Nc2ccc(-c3ccc(C)o3)cc2)cc1S(=O)(=O)N1CCOCC1` stands at 14.6

For reference, reported hERG current change (%, negative = inhibition) at 10uM for `COc1ccc(-n2nc3c(c2NC(=O)COc2cccc(OC)c2)CS(=O)(=O)C3)cc1` stands at -29.5

For reference, reported hERG current change (%, negative = inhibition) at 10uM for `O=c1oc2cc(S(=O)(=O)NCCCO)ccc2c2ccc(S(=O)(=O)NCCCO)cc12` stands at 16.1

For reference, reported hERG current change (%, negative = inhibition) at 10uM for `Cc1cccc(NC(=S)NCCN(C2CCCCC2)C2CCCC2)c1` stands at -70.3

For reference, reported hERG current change (%, negative = inhibition) at 10uM for `O=C(CN1CCC(n2nnc3cc(F)ccc32)CC1)Nc1ccc2c(c1)CCC2` stands at -21.3

For reference, reported hERG current change (%, negative = inhibition) at 10uM for `S=C(Nc1cccc(Cl)c1)NC1CCCCC1` stands at 7.58

For reference, reported hERG current change (%, negative = inhibition) at 10uM for `Cc1ccc(C)c(NC(=S)NCc2ccccc2)c1` stands at 13.8

For reference, reported hERG current change (%, negative = inhibition) at 10uM for `O=C(CN1C(=O)CSc2ccccc21)NC1CCCC1` stands at 0.766
